Tgt: HLA-A*03:01
Procedure summary: IEDB peptide-MHC binding, purified MHC/competitive/fluorescence; filed as Kd, often an IC50 or EC50 that approximates it; bounds were set here for any values at or beyond the usual limits of such assays
Run conditions: source organism: Rickettsia felis URRWXCal2
Recorded metric: Kd (nM)
Give just the numeric value; nM need not be written.

Q: Find the recorded Kd belonging to `LIAATAITH` and report it.
A: 266

----------
Tgt: HLA-B*57:01
Procedure summary: IEDB peptide-MHC binding, purified MHC/competitive/fluorescence; filed as Kd, often an IC50 or EC50 that approximates it; bounds were set here for any values at or beyond the usual limits of such assays
Run conditions: source organism: Rickettsia bellii RML369-C
Recorded metric: Kd

Q: What does the data say about its Kd? Entry: `FTIGNMFSL`
A: ≥ 20 µM

----------
Tgt: HLA-A*01:01
Procedure summary: IEDB peptide-MHC binding, purified MHC/direct/fluorescence; filed as Kd, often an IC50 or EC50 that approximates it; bounds were set here for any values at or beyond the usual limits of such assays
Run conditions: source organism: Coxiella burnetii
pKd: −log10 of the molar value.
Recorded metric: pKd

Q: What value of measured pKd is listed for `KGPDKLQVY` ?
A: ≤ 4.70

----------
Tgt: HLA-B*39:01
Procedure summary: IEDB peptide-MHC binding, purified MHC/competitive/fluorescence; filed as Kd, often an IC50 or EC50 that approximates it; bounds were set here for any values at or beyond the usual limits of such assays
Run conditions: source organism: Bacillus anthracis str. A0488
Recorded metric: Kd

Here is how some sequences turned out for Kd.
FVMPIFEQI :: ≥ 20000 nM
LRHSTAHLL :: 71.3 nM

Let us examine a further case.
Q: Kd for `YHHTAINVL` ?
A: 6.3 nM

----------
Tgt: HLA-A*80:01
Procedure summary: IEDB peptide-MHC binding, purified MHC/competitive/fluorescence; filed as Kd, often an IC50 or EC50 that approximates it; bounds were set here for any values at or beyond the usual limits of such assays
Run conditions: source organism: Rickettsia bellii RML369-C
pKd: −log10 of the molar value.
Recorded metric: pKd

Q: # query: pKd | item `FTIGNMFSL` | system: HLA-A*80:01
A: ≤ 4.70

----------
Tgt: HLA-A*02:12
Procedure summary: IEDB peptide-MHC binding, purified MHC/direct/fluorescence; filed as Kd, often an IC50 or EC50 that approximates it; bounds were set here for any values at or beyond the usual limits of such assays
Run conditions: source organism: Orthohantavirus andesense
pKd: −log10 of the molar value.
Quick reference: pKd of the listed items.

NALEKALRW :: ≤ 4.70

Kindly review the next sequence as well.
Q: Please give the measured pKd for this sequence: `VSANVKGNW`
A: ≤ 4.70

----------
Tgt: HLA-B*46:01
Procedure summary: IEDB peptide-MHC binding, purified MHC/direct/fluorescence; filed as Kd, often an IC50 or EC50 that approximates it; bounds were set here for any values at or beyond the usual limits of such assays
Run conditions: source organism: Listeria monocytogenes
Recorded metric: Kd

Q: // lookup Kd for `LMKAPGTYH`
A: 4.83 µM

----------
Tgt: HLA-A*02:01
Procedure summary: IEDB peptide-MHC binding, purified MHC/competitive/fluorescence; bounds were set here for any values at or beyond the usual limits of such assays
Run conditions: source organism: Zaire ebolavirus
Recorded metric: pIC50
pIC50 here: minus log base 10 of the concentration, concentration in moles per litre.

A selection of reference data follows.
LAKLTEAIT :: 4.16
YQQLREAAT :: 4.53
KSTDFLDPA :: 5.30

Q: Please give the measured pIC50 for this sequence: `MASENSSAM`
A: 4.92

Q: Follow-up entry: `TIAGVAGLI`
A: 5.22

Q: Next entry: `QFLLQLNET`
A: 4.79

Q: Likewise for `VGHMMVIFR` ?
A: 5.43

Q: Same for `NTIAGVAGL`
A: 4.50

Q: Would you mind doing `YLEGHGFRF` as well?
A: 6.40
